# ASSAY PROTOCOL: gradient 5% acetonitrile 3 min, to 50% in 2 min, to 85% in 15 min, held 3 min, 100 µL/min
# CONDITION INFO: column: Zorbax Extend-C18 2.1 x 50 mm; eluents: water / acetonitrile, 0.1% formic acid
MEASURE NAME: RP-LC retention time (s)

- MOLECULE: "O=C(NCC1CCCO1)c1ccc([N+](=O)[O-])cc1Cl (stereo not given)"
  MEASURE NAME: "RP-LC retention time"
  RECORDED MEASUREMENT: 664
- MOLECULE: "CC(C)Sc1ccc(CC(=O)NCC2CCN(C(=O)c3ccccc3F)CC2)cc1"
  MEASURE NAME: "RP-LC retention time"
  RECORDED MEASUREMENT: 833
- MOLECULE: "Cc1ccc(C)c(CNC(=O)c2ccc(-c3nc4cccnc4n3C3CCCCC3)cc2)c1"
  MEASURE NAME: "RP-LC retention time"
  RECORDED MEASUREMENT: 1120
- MOLECULE: "Cc1noc(-c2ccc(SCC(=O)Nc3ccc(S(N)(=O)=O)cc3)nc2)n1"
  MEASURE NAME: "RP-LC retention time"
  RECORDED MEASUREMENT: 705
- MOLECULE: "N#Cc1cccc(-c2nc(-c3ccc4c(c3)nnn4CCN3CCCCC3)no2)c1"
  MEASURE NAME: "RP-LC retention time"
  RECORDED MEASUREMENT: 678
- MOLECULE: "CCc1ccc(NC(=O)Cn2c(N)nc(C)c(C)c2=O)cc1"
  MEASURE NAME: "RP-LC retention time"
  RECORDED MEASUREMENT: 596
- MOLECULE: "CCc1nnc2nc(N3CCN(C(=O)COc4ccc(Cl)cc4)CC3)cc(C)n12"
  MEASURE NAME: "RP-LC retention time"
  RECORDED MEASUREMENT: 648
- MOLECULE: "CCC(C)N(C)C(=O)c1cc2ccccc2c(-c2ccccc2Cl)n1 (stereo not given)"
  MEASURE NAME: "RP-LC retention time"
  RECORDED MEASUREMENT: 1110
- MOLECULE: "COC(=O)Nc1ccc(S(=O)(=O)N2CCCC(C(=O)O)C2)cc1 (stereo not given)"
  MEASURE NAME: "RP-LC retention time"
  RECORDED MEASUREMENT: 640
- MOLECULE: "Cc1ccc(NC(=O)CSc2ccc(N3CCCC(C(=O)NC4CC4)C3)nn2)c(C)c1 (stereo not given)"
  MEASURE NAME: "RP-LC retention time"
  RECORDED MEASUREMENT: 625
- MOLECULE: "COc1ccc(NC(=O)C2CCN(C(=O)C3Sc4ccccc4NC3=O)CC2)cc1Cl (stereo not given)"
  MEASURE NAME: "RP-LC retention time"
  RECORDED MEASUREMENT: 795
- MOLECULE: "COc1ccc(-n2ccc(=O)c(-c3nc(-c4cccc(F)c4)no3)n2)cc1"
  MEASURE NAME: "RP-LC retention time"
  RECORDED MEASUREMENT: 868
- MOLECULE: "Cc1noc([C@@H]2CN(C(=O)c3cc(C)oc3C)C[C@H]2CO)n1"
  MEASURE NAME: "RP-LC retention time"
  RECORDED MEASUREMENT: 640
- MOLECULE: "Cc1ccnn1-c1ccc(SCC(=O)Nc2ccccc2F)nn1"
  MEASURE NAME: "RP-LC retention time"
  RECORDED MEASUREMENT: 869
- MOLECULE: "c1ccc(-c2ccc3c(c2)NCCN3)cc1"
  MEASURE NAME: "RP-LC retention time"
  RECORDED MEASUREMENT: 650
- MOLECULE: "COc1ccc(NC(=O)N2CCCN(C3CCN(Cc4ccc(F)cc4)C3=O)CC2)cc1 (stereo not given)"
  MEASURE NAME: "RP-LC retention time"
  RECORDED MEASUREMENT: 570
- MOLECULE: "CCCNC(=O)CCNc1c(-c2cccc(F)c2)nc2cnccn12"
  MEASURE NAME: "RP-LC retention time"
  RECORDED MEASUREMENT: 650
- MOLECULE: "COc1ccccc1CNS(=O)(=O)c1ccc2c(c1)CCCC(=O)N2"
  MEASURE NAME: "RP-LC retention time"
  RECORDED MEASUREMENT: 721
- MOLECULE: "CC1CCN(S(=O)(=O)c2ccc(-c3nnc(C(=O)NCCCN4CCCC4)o3)cc2)CC1"
  MEASURE NAME: "RP-LC retention time"
  RECORDED MEASUREMENT: 689
- MOLECULE: "CCCN1C(=O)COc2cc(-c3noc(C(=O)NCCCc4ccccc4)n3)ccc21"
  MEASURE NAME: "RP-LC retention time"
  RECORDED MEASUREMENT: 1090
- MOLECULE: "COc1ccc(NC(=O)c2noc3c2CCCC3)cc1OC"
  MEASURE NAME: "RP-LC retention time"
  RECORDED MEASUREMENT: 842
- MOLECULE: "CCOC(=O)c1c(C)[nH]c(C(=O)N2CCC(CC(=O)NCc3ccc(CC)cc3)CC2)c1C"
  MEASURE NAME: "RP-LC retention time"
  RECORDED MEASUREMENT: 869
- MOLECULE: "Cc1ccc(-n2c(=O)c3c(cc(C)n3C)n(CC(=O)Nc3cccc(Cl)c3)c2=O)cc1"
  MEASURE NAME: "RP-LC retention time"
  RECORDED MEASUREMENT: 937
- MOLECULE: "CCCn1cc(CCNC(=O)Nc2ccc(Cl)cc2)c2cccnc21"
  MEASURE NAME: "RP-LC retention time"
  RECORDED MEASUREMENT: 812
- MOLECULE: "O=C(CN1CCN(C(=O)Nc2ccc(Cl)cc2)CC1=O)N1CCN(c2ccc(F)cc2)CC1"
  MEASURE NAME: "RP-LC retention time"
  RECORDED MEASUREMENT: 766
- MOLECULE: "Cc1nc2cc(-c3noc(C(C)Oc4cccc(Cl)c4)n3)ccc2n(C)c1=O (stereo not given)"
  MEASURE NAME: "RP-LC retention time"
  RECORDED MEASUREMENT: 1110
- MOLECULE: "COc1cccc(Nc2c(-c3ccccc3)nc3cnccn23)c1"
  MEASURE NAME: "RP-LC retention time"
  RECORDED MEASUREMENT: 828
- MOLECULE: "CC(=O)N1c2ccc(S(=O)(=O)N3CCCCC3)cc2CC1C(=O)NCCN(C)C1CCCCC1 (stereo not given)"
  MEASURE NAME: "RP-LC retention time"
  RECORDED MEASUREMENT: 655
- MOLECULE: "O=C(C1=CN(c2ccc(F)cc2)c2cc(F)ccc2S1(=O)=O)N1CCCC1"
  MEASURE NAME: "RP-LC retention time"
  RECORDED MEASUREMENT: 748
- MOLECULE: "Cc1nnc(-c2coc(S(=O)(=O)N3CCCCC3C)c2)o1 (stereo not given)"
  MEASURE NAME: "RP-LC retention time"
  RECORDED MEASUREMENT: 809

* * *

# ASSAY PROTOCOL: gradient 5% acetonitrile 3 min, to 50% in 2 min, to 85% in 15 min, held 3 min, 100 µL/min
# CONDITION INFO: column: Zorbax Extend-C18 2.1 x 50 mm; eluents: water / acetonitrile, 0.1% formic acid
MEASURE NAME: RP-LC retention time (s)

Please review the entries below; each comes with its answer.
- MOLECULE: "Cn1cc(-c2cc3n(n2)CCC(=O)N3CCCC(=O)N2CCOCC2)c2ccccc21"
  RP-LC retention time (s): 692
- MOLECULE: "CCOc1ccc(-c2noc(Cc3nnc(-c4ccc(C)c(C)c4)o3)n2)cc1"
  RP-LC retention time (s): 1200
- MOLECULE: "NC(=O)c1ccc(NC(=O)c2sc3ncccc3c2-n2cccc2)cc1"
  RP-LC retention time (s): 728
- MOLECULE: "Cc1nc2cc(-c3noc(-c4cncc(Br)c4)n3)ccc2o1"
  RP-LC retention time (s): 1060
- MOLECULE: "CCCS(=O)(=O)N1CCC(N2C(=O)[C@H](OC)[C@@H]2c2ccncc2)CC1"
  RP-LC retention time (s): 700
- MOLECULE: "COc1ccccc1-c1nc(-c2ccc3ncn(C(C)C)c3c2)no1"
  RP-LC retention time (s): 741

1 = COCc1nncn1C1CCN(S(=O)(=O)c2cccc(F)c2)CC1
2 = CCCN(C(=O)CC)c1nc(-c2ccccc2)cs1
Qu. Hey, between 1 and 2 which has a smaller measured RP-LC retention time? Answer format: the label of the selected item.
Ans. 1
